Entries annotated with measured IC50
MEASUREMENT TARGET: papain (Carica papaya, UniProt P00784)
Sequence (P00784 134-345): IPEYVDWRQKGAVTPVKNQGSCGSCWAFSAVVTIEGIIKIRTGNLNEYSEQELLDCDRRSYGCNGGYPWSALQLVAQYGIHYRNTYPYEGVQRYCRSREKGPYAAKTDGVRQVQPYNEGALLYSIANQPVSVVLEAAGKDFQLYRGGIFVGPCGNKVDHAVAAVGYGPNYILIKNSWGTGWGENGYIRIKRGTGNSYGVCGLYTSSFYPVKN

## Input Recorded IC50 for CC(C)C[C@@H]1NC(=O)[C@@H](NC(=O)OCc2ccccc2)Cc2ccc(cc2)OCCCC[C@@H](C=O)NC1=O with papain (Carica papaya, UniProt P00784), please?
## Output > 50 µM

## Input Which measured IC50 belongs to CC(C)C[C@@H]1NC(=O)[C@@H](NC(=O)OCc2ccccc2)Cc2ccc(cc2)OCCCC[C@@H](CN=[N+]=[N-])NC1=O , tested on papain (Carica papaya, UniProt P00784)?
## Output > 50 µM

## Input Request - read-out IC50 | tested on papain (Carica papaya, UniProt P00784) | compound CC(C)C[C@@H]1NC(=O)[C@@H](NC(=O)OCc2ccccc2)Cc2ccc(cc2)OCCCC[C@@H](C(O)C#N)NC1=O (stereo partly drawn)
## Output 12 µM

====

MEASUREMENT TARGET: calpain II (m calpain) (Homo sapiens)
Sequence (P17655 1-700): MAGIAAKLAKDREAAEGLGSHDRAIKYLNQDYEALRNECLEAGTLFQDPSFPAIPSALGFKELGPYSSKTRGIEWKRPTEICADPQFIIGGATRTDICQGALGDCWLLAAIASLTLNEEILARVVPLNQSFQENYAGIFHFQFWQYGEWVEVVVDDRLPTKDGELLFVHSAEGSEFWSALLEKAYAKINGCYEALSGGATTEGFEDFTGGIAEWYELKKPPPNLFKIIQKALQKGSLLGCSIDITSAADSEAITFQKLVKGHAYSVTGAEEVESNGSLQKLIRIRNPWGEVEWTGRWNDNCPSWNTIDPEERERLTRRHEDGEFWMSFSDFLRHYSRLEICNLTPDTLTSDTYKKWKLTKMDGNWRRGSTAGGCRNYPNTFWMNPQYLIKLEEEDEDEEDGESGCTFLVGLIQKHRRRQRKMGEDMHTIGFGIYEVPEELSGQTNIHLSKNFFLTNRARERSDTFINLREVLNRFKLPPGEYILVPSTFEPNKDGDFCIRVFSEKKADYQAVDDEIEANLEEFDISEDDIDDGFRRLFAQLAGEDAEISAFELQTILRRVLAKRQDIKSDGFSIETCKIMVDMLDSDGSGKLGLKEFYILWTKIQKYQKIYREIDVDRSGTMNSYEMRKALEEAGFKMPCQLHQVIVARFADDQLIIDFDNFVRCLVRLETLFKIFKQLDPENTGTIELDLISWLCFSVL
Sequence (P04632 1-268 partner): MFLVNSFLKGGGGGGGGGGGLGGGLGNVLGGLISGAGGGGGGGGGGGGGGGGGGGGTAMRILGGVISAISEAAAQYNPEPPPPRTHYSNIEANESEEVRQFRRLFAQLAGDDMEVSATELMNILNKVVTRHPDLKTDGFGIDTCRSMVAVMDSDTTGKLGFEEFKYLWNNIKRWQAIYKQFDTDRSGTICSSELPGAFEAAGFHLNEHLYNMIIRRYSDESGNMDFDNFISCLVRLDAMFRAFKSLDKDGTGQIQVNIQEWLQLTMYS
ASSAY NAME: BODIPY-casein fluorescence-based enzyme assay, calpain II / m-calpain
Assay type: biochemical
REPORTED CONDITIONS: BODIPY-casein substrate, Table 3; read-out: IC50 against m-calpain
Here the recorded IC50 is given for each entry.
Just the number in nM, nothing appended.

Examples from the recorded data:
1) CC(C)C[C@@H]1NC(=O)[C@@H](NC(=O)OCc2ccccc2)Cc2ccc(cc2)OCCCC[C@@H](C=O)NC1=O 30
2) CC(C)[C@@H]1NC(=O)[C@@H](NC(=O)c2ccc[nH]2)Cc2ccc(cc2)OCCCC[C@@H](C=O)NC1=O 690
3) CC(C)C[C@@H]1NC(=O)[C@@H](NC(=O)OCc2ccccc2)Cc2ccc(cc2)OCCCCC[C@@H](C=O)NC1=O 180
4) CC(C)[C@@H]1NC(=O)[C@@H](NS(=O)(=O)c2ccc(F)cc2)Cc2ccc(cc2)OCCCCSC[C@@H](C=O)NC1=O 2400
5) CC(C)[C@@H]1NC(=O)[C@@H](NC(=O)OCc2ccccc2)Cc2ccc(cc2)OCCCC[C@@H](C=O)NC1=O 40

## Input Which IC50 value belongs to CC(C)[C@@H]1NC(=O)[C@@H](NC(=O)OCc2ccccc2)Cc2ccc(cc2)OCCCCSC[C@@H](C=O)NC1=O ?
## Output 295

====

Hi! I'm sharing some pIC50 results obtained with papain (Carica papaya, UniProt P00784).
pIC50: −log10 of the molar value.

Examples with answers:
COMPOUND	RESULT VALUE
CC(C)C[C@@H]1NC(=O)[C@@H](NC(=O)OCc2ccccc2)Cc2ccc(cc2)OCCCC[C@@H](CO)NC1=O [Compound 8]	< 4.30
CC(C)C[C@@H]1NC(=O)[C@@H](NC(=O)OCc2ccccc2)Cc2ccc(cc2)OCCCCC[C@@H](C=O)NC1=O [Compound 28]	< 4.30

# ---- query compound ----
## Input Please provide the recorded pIC50 for CC(C)C[C@@H]1NC(=O)[C@@H](NC(=O)OCc2ccccc2)Cc2ccc(cc2)OCCCCC[C@@H](CO)NC1=O [Compound 27] , tested on papain (Carica papaya, UniProt P00784).
## Output < 4.30

====

IC50 overview
MEASUREMENT TARGET: calpain II (m calpain) (Homo sapiens)
Sequence (P17655 1-700): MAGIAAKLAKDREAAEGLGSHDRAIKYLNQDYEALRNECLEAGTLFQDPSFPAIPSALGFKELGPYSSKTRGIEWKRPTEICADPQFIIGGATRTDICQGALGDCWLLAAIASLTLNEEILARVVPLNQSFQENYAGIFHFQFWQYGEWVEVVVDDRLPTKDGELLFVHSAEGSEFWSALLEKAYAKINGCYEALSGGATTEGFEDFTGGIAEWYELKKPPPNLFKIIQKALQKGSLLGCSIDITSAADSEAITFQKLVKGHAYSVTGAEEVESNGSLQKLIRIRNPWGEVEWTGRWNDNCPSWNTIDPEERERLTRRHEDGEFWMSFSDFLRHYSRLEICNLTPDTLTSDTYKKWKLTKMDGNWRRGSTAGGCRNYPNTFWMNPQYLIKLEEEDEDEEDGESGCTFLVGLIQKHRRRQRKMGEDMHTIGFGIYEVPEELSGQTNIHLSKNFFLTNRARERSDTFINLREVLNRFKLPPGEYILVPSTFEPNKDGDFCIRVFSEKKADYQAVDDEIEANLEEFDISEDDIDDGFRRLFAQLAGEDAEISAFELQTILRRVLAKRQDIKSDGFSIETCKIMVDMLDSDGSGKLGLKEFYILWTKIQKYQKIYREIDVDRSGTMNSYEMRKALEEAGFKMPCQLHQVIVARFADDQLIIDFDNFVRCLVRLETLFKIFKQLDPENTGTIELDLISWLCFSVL
Sequence (P04632 1-268 partner): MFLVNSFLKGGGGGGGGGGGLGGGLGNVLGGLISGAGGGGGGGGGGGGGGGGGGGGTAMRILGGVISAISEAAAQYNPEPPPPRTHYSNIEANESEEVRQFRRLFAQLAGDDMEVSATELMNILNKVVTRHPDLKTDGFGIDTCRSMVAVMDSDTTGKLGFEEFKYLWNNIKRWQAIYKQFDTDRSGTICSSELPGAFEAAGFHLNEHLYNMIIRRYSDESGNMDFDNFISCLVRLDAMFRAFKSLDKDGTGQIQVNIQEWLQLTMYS
ASSAY NAME: BODIPY-casein fluorescence-based enzyme assay, calpain II / m-calpain
Format: biochemical
REPORTED CONDITIONS: BODIPY-casein substrate, Table 3; read-out: IC50 against m-calpain
Expressed in µM, but write only the number.

1) CC(C)[C@@H]1NC(=O)[C@@H](NS(C)(=O)=O)Cc2ccc(cc2)OCCCC[C@@H](C=O)NC1=O 0.95
2) CC(C)[C@@H]1NC(=O)[C@@H](NS(=O)(=O)c2ccc(F)cc2)Cc2ccc(cc2)OCCC[C@@H](C=O)NC1=O 3.71
3) CC(C)C[C@@H]1NC(=O)[C@@H](NC(=O)OCc2ccccc2)Cc2ccc(cc2)OCCCC[C@@H](CO)NC1=O 0.7
4) CC(C)C[C@@H]1NC(=O)[C@@H](NS(=O)(=O)c2ccc(F)cc2)Cc2ccc(cc2)OCCCC[C@@H](C=O)NC1=O 0.045
5) CC(C)C[C@@H]1NC(=O)[C@@H](NS(=O)(=O)c2ccc(F)cc2)Cc2ccc(cc2)OCCCC[C@@H](CO)NC1=O 0.93

## Input // returns reported IC50 for input CC(C)[C@@H]1NC(=O)[C@@H](NS(=O)(=O)c2ccc(F)cc2)Cc2ccc(cc2)OCCCC[C@@H](C=O)NC1=O
## Output 0.28

## Input I have this molecule here, CC(C)C[C@@H]1NC(=O)[C@@H](NC(=O)OCc2ccccc2)Cc2ccc(cc2)OCCCCC[C@@H](CO)NC1=O , and I need its recorded IC50.
## Output 1.34
